Target: UniProt:P29375
Sequence (P29375 whole entry): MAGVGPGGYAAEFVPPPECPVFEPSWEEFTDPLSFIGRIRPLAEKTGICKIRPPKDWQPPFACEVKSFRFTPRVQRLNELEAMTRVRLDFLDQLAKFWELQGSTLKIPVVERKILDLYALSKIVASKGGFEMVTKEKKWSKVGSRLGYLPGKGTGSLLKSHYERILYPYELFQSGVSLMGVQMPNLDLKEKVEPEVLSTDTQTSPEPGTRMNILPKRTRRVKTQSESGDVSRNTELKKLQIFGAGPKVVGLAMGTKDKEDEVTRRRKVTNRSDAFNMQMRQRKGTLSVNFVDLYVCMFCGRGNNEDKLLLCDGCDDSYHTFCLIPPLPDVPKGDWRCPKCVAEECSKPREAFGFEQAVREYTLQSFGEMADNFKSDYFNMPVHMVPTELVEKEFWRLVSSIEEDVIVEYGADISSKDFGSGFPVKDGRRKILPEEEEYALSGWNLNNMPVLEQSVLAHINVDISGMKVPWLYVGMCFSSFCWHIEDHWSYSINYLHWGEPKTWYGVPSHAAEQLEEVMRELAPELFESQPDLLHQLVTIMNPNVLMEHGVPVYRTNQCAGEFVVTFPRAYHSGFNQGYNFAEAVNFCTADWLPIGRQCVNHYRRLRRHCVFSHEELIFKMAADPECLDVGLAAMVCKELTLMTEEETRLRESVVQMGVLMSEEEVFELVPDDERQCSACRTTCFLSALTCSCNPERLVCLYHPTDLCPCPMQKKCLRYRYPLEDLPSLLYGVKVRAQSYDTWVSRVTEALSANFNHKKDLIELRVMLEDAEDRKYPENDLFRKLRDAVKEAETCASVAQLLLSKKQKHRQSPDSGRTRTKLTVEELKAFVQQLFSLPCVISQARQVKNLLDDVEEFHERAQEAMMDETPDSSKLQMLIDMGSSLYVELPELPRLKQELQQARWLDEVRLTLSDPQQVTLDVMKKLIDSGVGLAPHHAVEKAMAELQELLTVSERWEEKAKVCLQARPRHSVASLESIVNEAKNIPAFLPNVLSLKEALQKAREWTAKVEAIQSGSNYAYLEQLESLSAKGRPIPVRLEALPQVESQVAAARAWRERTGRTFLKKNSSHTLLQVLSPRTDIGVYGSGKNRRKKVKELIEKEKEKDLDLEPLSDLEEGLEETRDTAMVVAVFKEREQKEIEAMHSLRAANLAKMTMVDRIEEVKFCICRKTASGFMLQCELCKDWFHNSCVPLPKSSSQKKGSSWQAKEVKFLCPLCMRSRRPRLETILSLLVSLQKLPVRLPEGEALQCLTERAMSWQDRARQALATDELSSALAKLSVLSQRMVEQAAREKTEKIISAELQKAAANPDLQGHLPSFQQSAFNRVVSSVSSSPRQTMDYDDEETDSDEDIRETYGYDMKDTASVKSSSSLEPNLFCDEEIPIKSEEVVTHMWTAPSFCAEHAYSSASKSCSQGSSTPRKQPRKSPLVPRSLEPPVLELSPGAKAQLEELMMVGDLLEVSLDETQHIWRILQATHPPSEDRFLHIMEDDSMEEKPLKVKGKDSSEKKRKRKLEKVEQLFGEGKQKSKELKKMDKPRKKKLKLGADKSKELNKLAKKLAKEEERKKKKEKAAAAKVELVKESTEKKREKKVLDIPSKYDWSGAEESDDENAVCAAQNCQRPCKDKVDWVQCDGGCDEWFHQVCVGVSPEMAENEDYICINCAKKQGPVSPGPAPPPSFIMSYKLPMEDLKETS

SMILES: CCCn1nc(Nc2cnccc2C(=O)O)c2cccc(C)c21
IC50: < 100 nM

====

Molecular target: Lysine-specific demethylase 5B (Homo sapiens)
Sequence (Q9UGL1 whole entry): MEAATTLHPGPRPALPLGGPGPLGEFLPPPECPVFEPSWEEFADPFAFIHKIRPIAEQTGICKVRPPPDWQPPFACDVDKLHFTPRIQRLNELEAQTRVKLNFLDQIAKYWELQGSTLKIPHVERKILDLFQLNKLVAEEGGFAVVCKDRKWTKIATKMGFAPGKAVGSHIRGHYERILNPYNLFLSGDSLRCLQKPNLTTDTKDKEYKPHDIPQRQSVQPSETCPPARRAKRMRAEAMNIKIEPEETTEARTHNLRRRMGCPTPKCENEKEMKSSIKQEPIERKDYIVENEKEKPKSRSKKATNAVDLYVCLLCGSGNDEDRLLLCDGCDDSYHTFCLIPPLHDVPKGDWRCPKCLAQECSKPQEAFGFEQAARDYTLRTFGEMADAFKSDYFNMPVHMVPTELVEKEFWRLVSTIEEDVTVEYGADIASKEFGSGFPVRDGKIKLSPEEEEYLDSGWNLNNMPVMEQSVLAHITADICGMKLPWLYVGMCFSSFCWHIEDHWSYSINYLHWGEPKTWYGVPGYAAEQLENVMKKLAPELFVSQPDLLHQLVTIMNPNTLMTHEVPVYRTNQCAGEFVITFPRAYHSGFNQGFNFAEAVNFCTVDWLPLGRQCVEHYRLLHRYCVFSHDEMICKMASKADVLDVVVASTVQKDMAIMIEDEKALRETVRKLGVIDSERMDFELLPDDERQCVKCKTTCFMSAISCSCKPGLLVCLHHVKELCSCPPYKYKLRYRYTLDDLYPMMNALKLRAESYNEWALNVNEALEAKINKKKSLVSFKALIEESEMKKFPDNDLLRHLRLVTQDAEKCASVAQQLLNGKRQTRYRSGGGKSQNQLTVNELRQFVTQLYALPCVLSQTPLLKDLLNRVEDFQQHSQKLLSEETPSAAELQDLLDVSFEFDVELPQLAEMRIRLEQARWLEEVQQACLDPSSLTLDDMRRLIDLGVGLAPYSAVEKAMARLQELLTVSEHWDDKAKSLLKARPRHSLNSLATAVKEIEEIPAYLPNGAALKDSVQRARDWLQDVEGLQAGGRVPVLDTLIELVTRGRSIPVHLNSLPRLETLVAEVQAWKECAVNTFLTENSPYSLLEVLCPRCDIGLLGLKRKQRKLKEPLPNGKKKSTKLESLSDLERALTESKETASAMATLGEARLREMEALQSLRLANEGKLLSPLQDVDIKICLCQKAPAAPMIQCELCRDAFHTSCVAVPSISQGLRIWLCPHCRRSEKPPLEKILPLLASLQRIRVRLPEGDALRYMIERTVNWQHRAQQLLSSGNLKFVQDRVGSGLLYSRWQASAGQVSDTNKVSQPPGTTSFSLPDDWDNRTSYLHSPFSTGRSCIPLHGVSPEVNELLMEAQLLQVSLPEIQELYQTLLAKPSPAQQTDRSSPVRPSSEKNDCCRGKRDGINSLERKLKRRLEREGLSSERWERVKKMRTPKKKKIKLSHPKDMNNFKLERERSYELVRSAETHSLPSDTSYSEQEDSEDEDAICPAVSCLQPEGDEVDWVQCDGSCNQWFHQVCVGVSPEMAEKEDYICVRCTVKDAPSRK

SMILES: CCCn1nc(Nc2cnccc2C(=O)O)c2cccc(C)c21
SUBJECT OF TEST: Lysine-specific demethylase 5B (Homo sapiens)
IC50: < 100 nM
